System: HeLa cells
Assay details: Protein expression assay in HeLa cells (One-Glo luciferase, NPI-Luc mRNA)
Format: cell-based, human
Condition info: 5 h, no serum, 4 wells, sterol amine post-added to LNP core Compound 18, DSPC, Cholesterol plus DMG-PEG 2K (SA3, SA11, SA24, SA26, SA39, SA32), plus Compound 428 (SA4, SA6, SA10, SA16), or plus β-sitosterol and DMG-PEG 2K (SA23, SA29, SA30, SA31)
Counter-ions that a name gives are not always drawn.
Assay metric: Average protein expression per cell (RLU per cell)
Only the number, expressed in RLU per cell, is required.

Please review the entries below; each comes with its answer.
CC(C)CCC[C@@H](C)[C@H]1CC[C@H]2[C@@H]3CC=C4C[C@@H](OC(=O)CC5CN6CCC5CC6)CC[C@]4(C)[C@H]3CC[C@]12C (stereo partly drawn): 301.8
CC(C)CCC[C@@H](C)[C@H]1CC[C@H]2[C@@H]3CC=C4C[C@@H](OC(=O)NCCNc5c(NCCCN(C)C)c(=O)c5=O)CC[C@]4(C)[C@H]3CC[C@]12C [SA26, hydrochloride salt]: 84.3

[ask] Sample CC(C)CCC[C@@H](C)[C@H]1CC[C@H]2[C@@H]3CC=C4C[C@@H](OC(=O)CCC(=O)N(CCCN)CCCCN)CC[C@]4(C)[C@H]3CC[C@]12C [SA31, dihydrochloride] — what was its Average protein expression per cell (RLU per cell)?
[reply] 643.6
